tested on: HAdV5-GFP; test: Plaque assay (inhibition of HAdV plaque formation); format: cell-based, HAdV-5; conditions: read-out: Plaque Assay (%) Inhibition (10 μM)
Where a name gives a salt, the structure may show the parent alone.
measurementKind: inhibition at 10 µM (%)
Supply the numeric figure in %, leaving out any unit text.

Exercise: Fill in inhibition at 10 µM for record O=C(Nc1cc(F)cc(C(F)(F)F)c1)c1cccc(Cl)c1 [Compound 21]
Solution: 99.3

Exercise: Tell me inhibition at 10 µM reported for Nc1ccc(NC(=O)c2cc(Cl)ccc2O)c(Cl)c1 [Compound 76]
Solution: 0

Exercise: Respond only with inhibition at 10 µM recorded for O=C(Nc1ccc(NCc2ccc(Cl)cc2)cc1Cl)c1cc(Cl)ccc1O [Compound 96]
Solution: 100

Exercise: Give the value of inhibition at 10 µM reported for the following: O=C(NCc1cccc(Cl)c1)c1cc(Cl)ccc1O [Compound 39]
Solution: 72

Exercise: Determine its reported inhibition at 10 µM: CC(C)[C@H](NC(=O)c1cc(Cl)ccc1O)C(=O)Nc1ccc(C(F)(F)F)cc1Cl [Compound 66]
Solution: 24.8

Exercise: Provide only the value of recorded inhibition at 10 µM for CC(C)[C@H](NC(=O)c1cc(Cl)ccc1O)C(=O)Nc1ccc(NC2CCCC2)cc1Cl [Compound 147]
Solution: 99.5

Exercise: Please list inhibition at 10 µM recorded for the compound Cc1ccc(O)c(C(=O)Nc2ccc(NC3CCCC3)cc2Cl)c1 [Compound 136]
Solution: 99.6

Exercise: Name the recorded inhibition at 10 µM of the item CC[C@@H](C)[C@H](NC(=O)c1cc(Cl)ccc1O)C(=O)Nc1ccc([N+](=O)[O-])cc1Cl [Compound 62] in your answer.
Solution: 99

Exercise: Give the value of inhibition at 10 µM reported for the following: CC(C)[C@H](NC(=O)c1cc(Cl)ccc1O)C(=O)Nc1ccc([N+](=O)[O-])cc1Cl [Compound 58]
Solution: 100

Exercise: Answer with the recorded inhibition at 10 µM for the compound listed here: CN1CCC(Oc2ccc(Cl)cc2C(=O)Nc2ccc(NC3CCCC3)cc2Cl)CC1 [Compound 139]
Solution: 0

Exercise: Consider the compound CCCNc1ccc(NC(=O)c2cc(Cl)ccc2O)c(Cl)c1 [Compound 80] . State its measured inhibition at 10 µM.
Solution: 100

Exercise: Report inhibition at 10 µM for O=C(NCc1ccc(F)cc1Cl)c1cc(Cl)ccc1O [Compound 31]
Solution: 97.1

Exercise: Provide one value: measured inhibition at 10 µM of O=C(NCc1ccc([N+](=O)[O-])cc1Cl)c1cc(Cl)ccc1O [Compound 30]
Solution: 100

Exercise: Entry O=C(Nc1ccc([N+](=O)[O-])c(Cl)c1)c1cc(Cl)ccc1O [Compound 10] needs its inhibition at 10 µM filled in; supply it.
Solution: 100

Exercise: Provide only the value of recorded inhibition at 10 µM for O=C(NCc1ccc(F)c(F)c1)c1cc(Cl)ccc1O [Compound 34]
Solution: 37.2

Exercise: Return reported inhibition at 10 µM. Input compound: CCCN(CCC)c1ccc(NC(=O)c2cc(Cl)ccc2O)c(Cl)c1 [Compound 91]
Solution: 100

Exercise: Give recorded inhibition at 10 µM. O=C(Nc1ccc(NCc2ccc3cn[nH]c3c2)cc1Cl)c1cc(Cl)ccc1O [Compound 114]
Solution: 98

Exercise: Identify measured inhibition at 10 µM corresponding to CC(C)Nc1ccc(NC(=O)c2cc(Cl)ccc2O)c(Cl)c1 [Compound 81]
Solution: 100

Exercise: Consider the compound O=C(Nc1ccc(NCc2cnccc2Cl)cc1Cl)c1cc(Cl)ccc1O [Compound 110] . State its measured inhibition at 10 µM.
Solution: 100

Exercise: Respond only with inhibition at 10 µM recorded for O=C(Nc1ccc(NC2CCCC2)cc1Cl)c1ccccc1O [Compound 135]
Solution: 77.5

Exercise: Using known records, supply inhibition at 10 µM for O=C(Nc1ccc(NCC2CCNCC2)cc1Cl)c1cc(Cl)ccc1O [Compound 127]
Solution: 20.6

Exercise: For the compound O=C(Nc1ccc(NC2CCNCC2)cc1Cl)c1cc(Cl)ccc1O [Compound 125, hydrochloride] , report inhibition at 10 µM.
Solution: 39.7

Exercise: Return the recorded inhibition at 10 µM value; entry: O=C(Nc1ccc(NCc2ccc(C(F)(F)F)cc2)cc1Cl)c1cc(Cl)ccc1O [Compound 98]
Solution: 99.6

Exercise: Consider the compound O=C(N[C@@H](Cc1ccccc1)C(=O)Nc1cc(C(F)(F)F)cc(C(F)(F)F)c1)c1cc(Cl)ccc1O [Compound 69] . State its measured inhibition at 10 µM.
Solution: 99

Exercise: Give the reported value of inhibition at 10 µM for this record: C[C@@H](NC(=O)c1cc(Cl)ccc1O)c1ccccc1 [Compound 46]
Solution: 100

Exercise: Dear colleague, please send me the reported inhibition at 10 µM for O=C(Nc1ccc([N+](=O)[O-])cc1F)c1cc(Cl)ccc1O [Compound 11] when you can.
Solution: 98.7
